Test system: S. aureus MP-12
Assay: Broth dilution MIC determination (CLSI), S. aureus MP-12
Format: cell-based
Settings: Staphylococcus aureus, MP12; strain MP-12, broth dilution
Observable: MIC

Use these answered entries as a reference point.
>>> result_value("CO[C@]1(C)C[C@@H](C)CN(C)[C@@H]([C@H]2CCN(C(C)=O)C2)COC(=O)C(C)(C)C(=O)[C@H](C)[C@H]1O[C@@H]1O[C@H](C)C[C@H](N(C)C)[C@H]1O")
"> 32 µg/mL"
>>> result_value("CO[C@]1(C)C[C@@H](C)CN(C)[C@H](C2CN(CC3CCOC3)C2)COC(=O)C(C)(C)C(=O)[C@H](C)[C@H]1O[C@@H]1O[C@H](C)C[C@H](N(C)C)[C@H]1O (stereo partly shown)")
"4 to 32 µg/mL"
>>> result_value("CO[C@]1(C)C[C@@H](C)CN(C)[C@H](C2CN(C3CCCCC3)C2)COC(=O)C(C)(C)C(=O)[C@H](C)[C@H]1O[C@@H]1O[C@H](C)C[C@H](N(C)C)[C@H]1O")
"4 to 32 µg/mL"
>>> result_value("CO[C@]1(C)C[C@@H](C)CN(C)[C@H]([C@H]2C[C@@H](N(C)CC3CC3)C2)COC(=O)C(C)(C)C(=O)[C@H](C)[C@H]1O[C@@H]1O[C@H](C)C[C@H](N(C)C)[C@H]1O")
"> 32 µg/mL"
>>> result_value("CCCN1C[C@H](C)C[C@@](C)(OC)[C@H](O[C@@H]2O[C@H](C)C[C@H](N(C)C)[C@H]2O)[C@@H](C)C(=O)C(C)(C)C(=O)OC[C@H]1C1CN(C(=O)CN(C)C)C1")
"4 to 32 µg/mL"
>>> result_value("CO[C@]1(C)C[C@@H](C)CN(C)[C@H]([C@H]2CCCN(C(C)C)C2)COC(=O)C(C)(C)C(=O)[C@H](C)[C@H]1O[C@@H]1O[C@H](C)C[C@H](N(C)C)[C@H]1O")
"4 to 32 µg/mL"
>>> result_value("CO[C@]1(C)C[C@@H](C)CN(C)[C@H]([C@H]2C[C@@H](N(C)CC3CCCO3)C2)COC(=O)C(C)(C)C(=O)[C@H](C)[C@H]1O[C@@H]1O[C@H](C)C[C@H](N(C)C)[C@H]1O (stereo partly shown)")
"> 32 µg/mL"
>>> result_value("CO[C@]1(C)C[C@@H](C)CN(C(=O)OCc2ccccc2)[C@H](C2CCN(C(C)C)CC2)COC(=O)C(C)(C)C(=O)[C@H](C)[C@H]1O[C@@H]1O[C@H](C)C[C@H](N(C)C)[C@H]1O")
"> 32 µg/mL"
>>> result_value("CO[C@]1(C)C[C@@H](C)CN(C)[C@H]([C@H]2C[C@H](N(C)CC3CC3)C2)COC(=O)C(C)(C)C(=O)[C@H](C)[C@H]1O[C@@H]1O[C@H](C)C[C@H](N(C)C)[C@H]1O")
"4 to 32 µg/mL"

We now examine a further molecule.
Problem: Using S. aureus MP-12 as the test system, report measured MIC of `CO[C@]1(C)C[C@@H](C)CN(C)[C@H](C2CN(C(C)C)C2)COC(=O)C(C)(C)C(=O)[C@H](C)[C@H]1O[C@@H]1O[C@H](C)C[C@H](N(C)C)[C@H]1O` .
Solution: > 32 µg/mL
